System: Monochoria vaginalis, Presl.
assay info: Preemergence weed control under flooded paddy conditions, MOOVA (Monochoria); further: meaning of each grade not given here
Type: in vivo
recorded conditions: Rate 0.0320 kg/ha; preemergence, flooded paddy; rated three to four weeks after treatment

>  <compound>
COCc1nsc2cc(F)c(-n3c(=O)cc(C(F)(F)F)n(C)c3=O)cc12 [Example 378]

>  <herbicidal effect rating, MOOVA>
9.0

$$$$
>  <compound>
C=CCONC(=O)c1nsc2ccc(-n3c(=O)cc(C(F)(F)F)n(C)c3=O)cc12 [Example 399]

>  <herbicidal effect rating, MOOVA>
6.0

$$$$
>  <compound>
CCS(=O)(=O)NC(=O)C(C)Oc1ccc(C)cc1-c1nsc2ccc(-n3c(=O)cc(C(F)(F)F)n(C)c3=O)cc12 (stereo not drawn) [Example 571]

>  <herbicidal effect rating, MOOVA>
0.0

$$$$

====

Test system: Cyperus serotinus, Rottb.
assay info: Preemergence weed control under flooded paddy conditions, CYPSE (Flatsedge); further: meaning of each grade not given here
Format: in vivo
recorded conditions: Rate 0.2500 kg/ha, preemergence weeds, rated three to four weeks after treatment
Flag rule - herbicidal effect rating, CYPSE less than 6 flags 1.0; the remaining entries get 0.0.

>  <molecule>
Cn1c(C(F)(F)F)cc(=O)n(-c2ccc3snc(C(=O)NS(C)(=O)=O)c3c2)c1=O [Example 323]

>  <assigned category>
0.0

$$$$
>  <molecule>
CC(OS(C)(=O)=O)c1nsc2ccc(-n3c(=O)cc(C(F)(F)F)n(C)c3=O)cc12 (stereo not shown) [Example 309]

>  <assigned category>
0.0

$$$$
>  <molecule>
C#CCOC(=O)COc1ccc(OC)cc1-c1nsc2ccc(-n3c(=O)cc(C(F)(F)F)n(C)c3=O)cc12 [Example 349]

>  <assigned category>
1.0

$$$$
>  <molecule>
COc1ccc(OC)c(-c2nsc3ccc(-n4c(=O)cc(C(F)(F)F)n(C)c4=O)cc23)c1 [Example 333]

>  <assigned category>
0.0

$$$$
>  <molecule>
Cn1c(C(F)(F)F)cc(=O)n(-c2ccc3snc(C(=O)Nc4cc(C(C)(C)C)on4)c3c2)c1=O [Example 331]

>  <assigned category>
1.0

$$$$
>  <molecule>
COC(=O)C(C)Oc1cccc(-c2nsc3ccc(-n4c(=O)cc(C(F)(F)F)n(C)c4=O)cc23)c1 (stereo not shown) [Example 325]

>  <assigned category>
0.0

$$$$

====

Tested on: Oryza sativa, (L.) Tebonnet
assay info: Rice tolerance to post-transplant applications under flooded paddy conditions (Example 187), ORYSAT (Rice, Tebonnet)
recorded conditions: Rate 0.2500 kg/ha, rated three to four weeks after treatment

>  <smi>
Cn1c(C(F)(F)F)cc(=O)n(-c2ccc3snc(-c4ccc(OCC(=O)O)cc4)c3c2)c1=O

>  <ORYSAT herbicidal effect rating>
6.0

$$$$
>  <smi>
CCOc1nc(C(F)(F)F)cc(=O)n1-c1ccc2snc(-c3cc(C)ccc3OCC(=O)OC)c2c1

>  <ORYSAT herbicidal effect rating>
2.0

$$$$
>  <smi>
CC(C)=CCOCc1nsc2ccc(-n3c(=O)cc(C(F)(F)F)n(C)c3=O)cc12

>  <ORYSAT herbicidal effect rating>
7.0

$$$$
>  <smi>
CC(=O)/C=C/c1nsc2ccc(-n3c(=O)cc(C(F)(F)F)n(C)c3=O)cc12

>  <ORYSAT herbicidal effect rating>
7.0

$$$$

====

Tested on: Sagittaria pygmaea, L.
assay info: Preemergence weed control under flooded paddy conditions, SAGPY (Arrowhead (Pygmaea))
Type: in vivo
recorded conditions: 0.0320 kg/ha; preemergence weeds, flooded paddy; herbicidal effect rating 0-9, three to four weeks after treatment
Quick reference for SAGPY among some compounds

>  <compound>
Cn1c(C(F)(F)F)cc(=O)n(-c2ccc3snc(COC(=O)Cc4ccc(Cl)cc4)c3c2)c1=O

>  <SAGPY>
0.0

$$$$
>  <compound>
COc1cc(C(Br)Br)ccc1-c1nsc2ccc(-n3c(=O)cc(C(F)(F)F)n(C)c3=O)cc12

>  <SAGPY>
4.0

$$$$
>  <compound>
COc1ccc(C)cc1-c1nsc2cc(Cl)c(-n3c(=O)cc(C(F)(F)F)n(C)c3=O)cc12

>  <SAGPY>
1.3

$$$$
>  <compound>
COc1cccc(CC(=O)OCc2nsc3ccc(-n4c(=O)cc(C(F)(F)F)n(C)c4=O)cc23)c1

>  <SAGPY>
0.0

$$$$
>  <compound>
Cn1c(C(F)(F)F)cc(=O)n(-c2ccc3snc(C(=O)SCc4ccccc4)c3c2)c1=O

>  <SAGPY>
0.0

$$$$
>  <compound>
Cn1c(C(F)(F)F)cc(=O)n(-c2ccc3snc(C(=O)c4ccccc4)c3c2)c1=O

>  <SAGPY>
2.0

$$$$
>  <compound>
CC(=O)OCCCSC(SCCCOC(C)=O)c1nsc2ccc(-n3c(=O)cc(C(F)(F)F)n(C)c3=O)cc12

>  <SAGPY>
0.0

$$$$
>  <compound>
CN(C)/N=C/c1nsc2ccc(-n3c(=O)cc(C(F)(F)F)n(C)c3=O)cc12

>  <SAGPY>
2.0

$$$$
>  <compound>
CN(C(=O)COc1ccccc1-c1nsc2ccc(-n3c(=O)cc(C(F)(F)F)n(C)c3=O)cc12)S(C)(=O)=O

>  <SAGPY>
2.0

$$$$
>  <compound>
Cn1c(C(F)(F)F)cc(=O)n(-c2ccc3snc(C(SCCCO)SCCCO)c3c2)c1=O

>  <SAGPY>
0.0

$$$$
>  <compound>
CC(c1ccccc1)S(=O)(=O)NC(=O)c1nsc2ccc(-n3c(=O)cc(C(F)(F)F)n(C)c3=O)cc12 (stereo not shown)

>  <SAGPY>
4.0

$$$$
>  <compound>
Cc1ccc(OCC(=O)N(C)S(C)(=O)=O)c(-c2nsc3ccc(-n4c(=O)cc(C(F)(F)F)n(C)c4=O)cc23)c1

>  <SAGPY>
0.0

$$$$
>  <compound>
CCOCN(C(=O)c1nsc2ccc(-n3c(=O)cc(C(F)(F)F)n(C)c3=O)cc12)S(=O)(=O)Cc1ccccc1

>  <SAGPY>
4.0

$$$$
>  <compound>
Cn1c(C(F)(F)F)cc(=O)n(-c2ccc3snc(C(=O)NS(=O)(=O)Cc4ccccc4[N+](=O)[O-])c3c2)c1=O

>  <SAGPY>
0.0

$$$$
>  <compound>
CCSC(=O)c1nsc2ccc(-n3c(=O)cc(C(F)(F)F)n(C)c3=O)cc12

>  <SAGPY>
0.0

$$$$
>  <compound>
CCC(C#N)c1nsc2ccc(-n3c(=O)cc(C(F)(F)F)n(C)c3=O)cc12 (stereo not shown)

>  <SAGPY>
4.5

$$$$
>  <compound>
Cc1ccc(OCC(=O)NS(C)(=O)=O)c(-c2noc3cc(F)c(-n4c(=O)cc(C(F)(F)F)n(C)c4=O)cc23)c1

>  <SAGPY>
0.0

$$$$
>  <compound>
COc1cc(C)c(I)cc1-c1nsc2ccc(-n3c(=O)cc(C(F)(F)F)n(C)c3=O)cc12

>  <SAGPY>
2.0

$$$$
>  <compound>
Cn1c(C(F)(F)F)cc(=O)n(-c2ccc3snc(/C=N/Nc4ccccc4)c3c2)c1=O

>  <SAGPY>
0.0

$$$$
>  <compound>
Cn1c(C(F)(F)F)cc(=O)n(-c2ccc3snc(COC4CCCCO4)c3c2)c1=O (stereo not shown)

>  <SAGPY>
0.0

$$$$
>  <compound>
COC(=O)C(C)Oc1cc2c(cc1-c1nsc3ccc(-n4c(=O)cc(C(F)(F)F)n(C)c4=O)cc13)CCC2 (stereo not shown)

>  <SAGPY>
0.0

$$$$
>  <compound>
Cn1c(C(F)(F)F)cc(=O)n(-c2ccc3snc(C(=O)NS(=O)(=O)Cc4ccc(OC(F)(F)F)cc4)c3c2)c1=O

>  <SAGPY>
3.0

$$$$
